tested on: HEK-293T; assay: Multiplex assay against HEK293T; type: toxicity, cell-based; settings: human, 24 h, 10 µM, compound concentration 10 uM, replicate 1
Rule: Population Apoptotic (%) of 40% or more gives 1.0; anything lower gives 0.0.

- molecule: "C[C@H](NC(=O)c1c(C(F)F)nn(C)c1Oc1cccc(C(F)(F)F)c1)c1ccc(C(=O)O)cc1 [PALUPIPRANT]"
  systemUnderTest: "HEK-293T"
  cat: 0.0
- molecule: "N[C@@]1(C(=O)O)CO[C@H]2[C@H](C(=O)O)[C@H]21 [LY-379268]"
  systemUnderTest: "HEK-293T"
  cat: 0.0
- molecule: "CNC[C@H](O)c1ccc(O)c(O)c1 [EPINEPHRINE]"
  systemUnderTest: "HEK-293T"
  cat: 1.0
- molecule: "C[C@H]1[C@H]2CC[C@H]3[C@@H]4CC=C5C[C@@H](N(C)C)CC[C@]5(C)[C@H]4CC[C@]23CN1C [CONESSINE]"
  systemUnderTest: "HEK-293T"
  cat: 0.0
- molecule: "CCCN1CCC[C@@H]2Cc3n[nH]cc3C[C@H]21.Cl [QUINPIROLE HYDROCHLORIDE]"
  systemUnderTest: "HEK-293T"
  cat: 1.0
- molecule: "c1cc(OCCCN2CCCCC2)ccc1CN1CCCCC1 [JNJ-5207852]"
  systemUnderTest: "HEK-293T"
  cat: 1.0
- molecule: "O=C(O)c1cc2ccccc2c(Cc2c(O)c(C(=O)O)cc3ccccc23)c1O [PAMOIC ACID]"
  systemUnderTest: "HEK-293T"
  cat: 0.0
